B1: TFE3 (parent)
chain: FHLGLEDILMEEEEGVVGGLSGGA

variants of: B1; experiment: protein stability index of a GFP-peptide fusion (GPS, HEK-293T) (PSI 1-6); higher = more stable; conditions: c terminus: a fixed tail appended;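 also: lentivirally expressed fusions sorted by FACS into six bins by GFP to DsRed ratio, PSI derived from sequencing read proportions per bin multiplied by bin number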
experimental.readout: protein stability index

var: E13L
reported.result: 2.37
//
var: E13S
reported.result: 3.34
//
var: S21M
reported.result: 3.54
//
var: F1T
reported.result: 4.02
//
var: G22S
reported.result: 3.57
//
var: E13A
reported.result: 2.83
//
var: L9V
reported.result: 4.11
//
var: L3Y
reported.result: 3.56
//
var: L20T
reported.result: 4.11
//
var: A24R
reported.result: 3.86
//
var: L20A
reported.result: 4.74
